I'd be grateful if you could share measured Activity for these entries.
Biological target: Glutamate receptor ionotropic, NMDA 2B (Rattus norvegicus) (UniProt Q00960)
Sequence (Q00960 27-1482 limits assumed): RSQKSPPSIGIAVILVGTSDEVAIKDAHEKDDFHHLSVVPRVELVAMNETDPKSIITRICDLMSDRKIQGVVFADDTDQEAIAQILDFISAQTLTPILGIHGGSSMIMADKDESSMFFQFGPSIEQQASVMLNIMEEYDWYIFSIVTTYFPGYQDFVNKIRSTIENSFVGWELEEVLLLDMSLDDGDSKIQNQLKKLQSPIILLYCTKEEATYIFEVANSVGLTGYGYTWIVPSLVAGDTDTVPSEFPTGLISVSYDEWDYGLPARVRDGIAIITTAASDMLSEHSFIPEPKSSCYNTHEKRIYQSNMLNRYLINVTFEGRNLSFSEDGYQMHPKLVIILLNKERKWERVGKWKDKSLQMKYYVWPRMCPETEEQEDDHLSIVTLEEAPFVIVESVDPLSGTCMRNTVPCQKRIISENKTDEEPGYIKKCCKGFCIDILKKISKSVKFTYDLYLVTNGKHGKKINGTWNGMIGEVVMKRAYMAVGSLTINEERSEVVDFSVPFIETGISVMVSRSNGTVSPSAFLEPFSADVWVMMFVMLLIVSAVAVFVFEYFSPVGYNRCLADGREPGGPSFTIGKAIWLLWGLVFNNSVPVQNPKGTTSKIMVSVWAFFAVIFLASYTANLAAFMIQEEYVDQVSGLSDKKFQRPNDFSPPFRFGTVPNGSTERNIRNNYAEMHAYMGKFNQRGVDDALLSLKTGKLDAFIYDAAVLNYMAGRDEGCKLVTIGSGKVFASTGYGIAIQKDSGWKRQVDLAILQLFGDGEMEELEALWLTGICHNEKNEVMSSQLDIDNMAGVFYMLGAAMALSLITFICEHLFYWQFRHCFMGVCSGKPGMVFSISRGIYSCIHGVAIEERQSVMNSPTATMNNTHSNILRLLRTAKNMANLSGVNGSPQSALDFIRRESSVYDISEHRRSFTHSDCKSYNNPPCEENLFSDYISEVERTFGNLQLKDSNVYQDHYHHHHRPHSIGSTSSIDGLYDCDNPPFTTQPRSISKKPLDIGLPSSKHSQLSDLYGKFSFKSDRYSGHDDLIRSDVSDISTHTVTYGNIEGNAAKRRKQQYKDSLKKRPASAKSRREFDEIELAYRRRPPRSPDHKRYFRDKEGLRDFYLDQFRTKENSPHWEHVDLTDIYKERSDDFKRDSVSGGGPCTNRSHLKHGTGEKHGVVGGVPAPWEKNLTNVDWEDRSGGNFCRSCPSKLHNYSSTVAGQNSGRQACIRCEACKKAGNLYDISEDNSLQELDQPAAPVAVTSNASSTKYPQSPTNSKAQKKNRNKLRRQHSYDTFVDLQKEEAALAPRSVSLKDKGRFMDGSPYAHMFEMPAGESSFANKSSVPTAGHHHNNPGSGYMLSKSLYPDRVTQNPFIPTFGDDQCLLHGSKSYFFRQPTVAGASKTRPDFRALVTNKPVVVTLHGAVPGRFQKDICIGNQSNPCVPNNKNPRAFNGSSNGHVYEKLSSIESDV
Assay: Displacement of [3H]ifenprodil from GluN2B/NMDA in Wistar rat cerebral cortex at 10 uM after 120 mins by scintillation counting
Assay type: tissue-based
One number for each entry, in %.

mol-smiles: O=C(C(=O)N1CCC(Cc2ccccc2)CC1)c1c[nH]c2cccc(O)c12
study-target: Glutamate receptor ionotropic, NMDA 2B (Rattus norvegicus) (UniProt Q00960)
unit-name: %
numeric-value: 24

mol-smiles: O=C(C(=O)N1CCC(Cc2ccccc2)CC1)c1c[nH]c2cc(O)ccc12
study-target: Glutamate receptor ionotropic, NMDA 2B (Rattus norvegicus) (UniProt Q00960)
unit-name: %
numeric-value: 92

mol-smiles: COc1cccc2c(C(=O)CN3CCC(Cc4ccccc4)CC3)c[nH]c12
study-target: Glutamate receptor ionotropic, NMDA 2B (Rattus norvegicus) (UniProt Q00960)
unit-name: %
numeric-value: 62

mol-smiles: O=C(CN1CCC(Cc2ccccc2)CC1)c1c[nH]c2cc(O)ccc12
study-target: Glutamate receptor ionotropic, NMDA 2B (Rattus norvegicus) (UniProt Q00960)
unit-name: %
numeric-value: 92

API: the following record is the query input.
Per the record, "O=C(C(=O)N1CCC(Cc2ccccc2)CC1)c1c[nH]c2c(O)cccc12" has Activity of 79

* * *

What ED50 was measured for each of the following?
System: Mus musculus
Assay: Anticonvulsant activity in DBA/2 mouse assessed as inhibition of audiogenic clonic seizures administered as ip, 30 mins prior to auditory stimulation measured for 60 secs
Type: functional
Details: DBA/2, ip
Answers are plain numbers, in µmol/kg.

Count: 6. Required value per item: ED50.
1. O=C(C(=O)N1CCC(Cc2ccccc2)CC1)c1c[nH]c2cccc(O)c12
2. O=C(C(=O)N1CCC(Cc2ccccc2)CC1)c1c[nH]c2cc(O)ccc12
3. COc1cccc2c(C(=O)C(=O)N3CCC(Cc4ccccc4)CC3)c[nH]c12
4. COc1cccc2c(C(=O)CN3CCC(Cc4ccccc4)CC3)c[nH]c12
5. COc1ccc2[nH]cc(C(=O)CN3CCN(Cc4ccccc4)CC3)c2c1
6. COc1ccc2c(C(=O)C(=O)N3CCC(Cc4ccccc4)CC3)c[nH]c2c1

[52.1, 84.4, 51.4, 80.3, 98.7, 11.9]

* * *

System: Mus musculus
Experiment: Anticonvulsant activity in DBA/2 mouse assessed as inhibition of audiogenic clonic seizures administered as ip, 30 mins prior to auditory stimulation measured for 60 secs
Type: functional
Conditions: DBA/2, ip
I'd appreciate it if you could supply ED50 values for the items below.
Give bare numbers, in µmol/kg.

Below: 4 compounds and their reported ED50.
mol-smiles: O=C(C(=O)N1CCC(Cc2ccccc2)CC1)c1c[nH]c2c(O)cccc12
measurement-name: ED50
numeric-value: 80.5
--
mol-smiles: O=C(CN1CCC(Cc2ccccc2)CC1)c1c[nH]c2cccc(O)c12
measurement-name: ED50
numeric-value: 68.1
--
mol-smiles: COc1ccc2c(C(=O)CN3CCC(Cc4ccccc4)CC3)c[nH]c2c1
measurement-name: ED50
numeric-value: 67.8
--
mol-smiles: COc1cccc2[nH]cc(C(=O)CN3CCC(Cc4ccccc4)CC3)c12
measurement-name: ED50
numeric-value: 32.7

Next item in the queue.
Entry "O=C(CN1CCC(Cc2ccccc2)CC1)c1c[nH]c2cc(O)ccc12" , ED50 reported as 95.4
